Molecular target: Phosphatidylinositol 4,5-bisphosphate 3-kinase catalytic subunit beta isoform (Homo sapiens)
Sequence (P42338 whole entry, canonical isoform): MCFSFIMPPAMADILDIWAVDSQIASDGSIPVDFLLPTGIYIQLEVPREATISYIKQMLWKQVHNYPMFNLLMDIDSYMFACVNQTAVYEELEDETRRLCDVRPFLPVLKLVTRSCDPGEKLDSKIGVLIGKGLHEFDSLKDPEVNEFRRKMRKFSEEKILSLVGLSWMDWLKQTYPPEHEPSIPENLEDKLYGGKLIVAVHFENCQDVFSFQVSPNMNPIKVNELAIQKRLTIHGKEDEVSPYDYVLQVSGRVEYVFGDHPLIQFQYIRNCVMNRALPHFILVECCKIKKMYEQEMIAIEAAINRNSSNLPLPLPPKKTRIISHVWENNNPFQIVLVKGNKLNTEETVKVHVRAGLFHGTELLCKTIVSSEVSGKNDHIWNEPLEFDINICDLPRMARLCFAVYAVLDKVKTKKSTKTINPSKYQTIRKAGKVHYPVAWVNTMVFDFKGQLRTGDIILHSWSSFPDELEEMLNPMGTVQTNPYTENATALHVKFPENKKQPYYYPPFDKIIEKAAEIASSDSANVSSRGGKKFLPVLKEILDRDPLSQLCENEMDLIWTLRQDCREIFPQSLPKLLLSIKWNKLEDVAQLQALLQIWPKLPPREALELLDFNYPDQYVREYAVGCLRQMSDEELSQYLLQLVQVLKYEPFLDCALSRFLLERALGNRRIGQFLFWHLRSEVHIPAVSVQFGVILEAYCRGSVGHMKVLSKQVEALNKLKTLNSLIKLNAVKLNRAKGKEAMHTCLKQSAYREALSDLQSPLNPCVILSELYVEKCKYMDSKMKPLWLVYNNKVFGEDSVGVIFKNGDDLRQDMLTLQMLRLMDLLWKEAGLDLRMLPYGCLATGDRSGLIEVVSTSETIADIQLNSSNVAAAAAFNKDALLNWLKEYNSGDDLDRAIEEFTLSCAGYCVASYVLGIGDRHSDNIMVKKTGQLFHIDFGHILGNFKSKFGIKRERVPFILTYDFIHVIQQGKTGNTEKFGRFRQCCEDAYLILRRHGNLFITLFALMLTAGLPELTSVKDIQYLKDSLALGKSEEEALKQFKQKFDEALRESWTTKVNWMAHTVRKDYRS
Test: Inhibition of PI3Kbeta (unknown origin) pre-incubated for 20 mins before phosphatidylinositol 4, 5-bisphosphate substrate addition by kinase-glo plus luminescence assay
TEST_READOUT: IC50 (µM)

> print(dat)
                         smiles.notation  test.readout  result.unit  readout.value
1  CN(C)C(=O)c1ccc(-c2ccc3nc(N)sc3c2)cn1          IC50           µM           79.4
2        Nc1nc2ccc(-c3cnn(C4CC4)c3)cc2s1          IC50           µM             10

A: Cn1ccc(-c2ccc3nc(N)sc3c2)n1
B: CCn1cc(-c2ccc3nc(N)sc3c2)cn1
Higher IC50: A or B ? API: response body contains the label of the selected item.
B
(B: 31.6 µM, A: 15.8 µM)
